experimental.protocol: Ross-Miles foam height assay of aldonamides (Examples 81-84)
Assay type: physicochemical
test.parameters: after 10 minutes; 0.1% aldonamide, 40° C. (if not soluble, about 5°-10° C. above Krafft point), 0 ppm hardness
Experimental: In the Ross-Miles method, 200 mL of a suffactant solution contained in a pipette of specified dimensions with a 2.9 -mm-i.d. orifice is allowed to fall 90 cm onto 50 mL of the same solution contained in a cylindrical vessel maintained at a given temperature by means of a water jacket. The height of the foam produced in the cylindrical vessel is read immediately after all the solution has run out of the pipette and then again after a given amount of time. […]
property.name: Foam Height Final (mm)

[
  {
    "compound": "CCCCCCCCCCCNC(=O)[C@H](O)[C@@H](O)[C@H](O[C@@H]1O[C@H](CO)[C@H](O)[C@H](O)[C@H]1O)[C@H](O)CO [C11 D-Lactobionamide]",
    "reading": 0
  }
]

1 = CCCCCCCCCCCCOCCCNC(=O)[C@H](O)[C@@H](O)[C@H](O[C@H]1O[C@H](CO)[C@@H](O)[C@H](O)[C@H]1O)[C@H](O)CO [C12 Oxypropyl D-Maltobionamide, Dodecyloxypropyl D-Maltobionamide]
2 = CCCCCCCCCCCCCCNC(=O)[C@H](O)[C@@H](O)[C@H](O[C@@H]1O[C@H](CO)[C@H](O)[C@H](O)[C@H]1O)[C@H](O)CO [C14 D-Lactobionamide]
Of the two listed items, which has the higher Foam Height Final? First: 1 Second: 2 Lab log: write the label of the selected item as the result. 1
(1: 155 mm, 2: 59 mm)
